target: hERG (KCNH2) (Homo sapiens, UniProt Q12809); assay: Inhibition of human ERG at 11.1 uM relative to control
Sequence (Q12809 whole entry): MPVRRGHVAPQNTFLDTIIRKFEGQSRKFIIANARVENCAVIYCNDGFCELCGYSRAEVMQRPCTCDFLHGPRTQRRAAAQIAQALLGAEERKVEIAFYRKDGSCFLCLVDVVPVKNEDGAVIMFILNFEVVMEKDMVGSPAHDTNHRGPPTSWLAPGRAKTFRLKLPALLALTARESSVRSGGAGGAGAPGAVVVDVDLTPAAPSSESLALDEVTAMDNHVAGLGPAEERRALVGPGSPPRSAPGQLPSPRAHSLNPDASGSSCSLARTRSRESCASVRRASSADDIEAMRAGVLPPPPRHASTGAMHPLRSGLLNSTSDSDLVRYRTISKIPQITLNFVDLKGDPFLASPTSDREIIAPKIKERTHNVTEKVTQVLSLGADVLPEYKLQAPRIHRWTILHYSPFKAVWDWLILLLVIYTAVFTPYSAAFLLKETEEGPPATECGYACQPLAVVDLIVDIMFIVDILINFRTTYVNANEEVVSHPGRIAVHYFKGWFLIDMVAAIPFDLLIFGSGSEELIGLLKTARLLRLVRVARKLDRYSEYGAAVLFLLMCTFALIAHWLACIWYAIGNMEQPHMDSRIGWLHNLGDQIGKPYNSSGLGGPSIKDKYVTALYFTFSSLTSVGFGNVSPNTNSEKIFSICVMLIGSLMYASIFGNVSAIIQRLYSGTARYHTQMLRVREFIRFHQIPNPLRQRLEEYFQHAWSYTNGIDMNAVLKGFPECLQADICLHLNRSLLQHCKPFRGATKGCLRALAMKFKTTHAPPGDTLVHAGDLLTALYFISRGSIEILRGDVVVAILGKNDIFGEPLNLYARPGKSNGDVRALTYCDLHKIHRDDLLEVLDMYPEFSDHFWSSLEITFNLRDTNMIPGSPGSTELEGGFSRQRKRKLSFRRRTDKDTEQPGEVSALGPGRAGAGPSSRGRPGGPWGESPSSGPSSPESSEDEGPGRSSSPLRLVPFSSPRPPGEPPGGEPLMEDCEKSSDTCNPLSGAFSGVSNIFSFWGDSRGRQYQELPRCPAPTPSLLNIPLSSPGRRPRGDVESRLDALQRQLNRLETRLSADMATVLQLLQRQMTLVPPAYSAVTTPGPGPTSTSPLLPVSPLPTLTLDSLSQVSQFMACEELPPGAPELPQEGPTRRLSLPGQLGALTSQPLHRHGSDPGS
Recorded inhibition at 11.1 µM values for a group of compounds are listed next.
measurement-name: inhibition at 11.1 µM (%)

smi | measurement-name | readout-number
[2H]C1([2H])OC(N)=N[C@]12c1cc(-c3cncnc3)ccc1C[C@@]21CC[C@H](OC)[C@@H](CC)C1 | inhibition at 11.1 µM | 29
[2H]C1([2H])OC(N)=N[C@]12c1cc(-c3cncnc3)ccc1C[C@]21CC[C@@H](OC)[C@H](CC)C1 | inhibition at 11.1 µM | 15

----------
target: Beta-secretase 1 (Homo sapiens); assay: Inhibition of BACE1 in human SH-SY5Y cells assessed as decrease in sAPP-beta release after 16 to 17 hrs
Sequence (P56817 whole entry): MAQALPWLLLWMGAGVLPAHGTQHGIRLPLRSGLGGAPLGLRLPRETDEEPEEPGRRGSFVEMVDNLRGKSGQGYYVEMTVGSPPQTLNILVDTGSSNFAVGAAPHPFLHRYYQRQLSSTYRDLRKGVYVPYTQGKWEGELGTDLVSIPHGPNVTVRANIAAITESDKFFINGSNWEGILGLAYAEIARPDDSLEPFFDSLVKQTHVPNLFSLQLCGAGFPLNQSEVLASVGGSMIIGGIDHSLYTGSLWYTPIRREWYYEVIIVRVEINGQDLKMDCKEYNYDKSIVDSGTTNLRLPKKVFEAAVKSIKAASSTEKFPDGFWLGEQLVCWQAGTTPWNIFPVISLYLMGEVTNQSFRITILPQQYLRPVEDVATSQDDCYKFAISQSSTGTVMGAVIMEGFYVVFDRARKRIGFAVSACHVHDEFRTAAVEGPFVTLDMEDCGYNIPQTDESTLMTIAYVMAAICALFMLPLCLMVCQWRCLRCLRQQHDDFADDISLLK
pIC50: −log10 of the molar value.
Recorded pIC50 values for a group of molecules are listed next.
measurement-name: pIC50

smi | measurement-name | readout-number
[2H]C1([2H])OC(N)=N[C@]12c1cc(-c3cncnc3)ccc1C[C@]21CC[C@@H](OC)CC1 | pIC50 | 8.15
[2H]C1([2H])OC(N)=N[C@]12c1cc(-c3cccnc3)ccc1C[C@]21CC[C@@H](OC)CC1 | pIC50 | 8.15

----------
pKi: −log10 of the molar value.
pKi values recorded for Beta-secretase 1 (Homo sapiens, UniProt P56817)
measurement-name: pKi

smi | system-name | measurement-name | readout-number
[2H]C1([2H])OC(N)=N[C@]12c1cc(-c3cccnc3)ccc1C[C@]21CC[C@@H](OC)CC1 | Beta-secretase 1 (Homo sapiens, UniProt P56817) | pKi | 6.37
[2H]C1([2H])OC(N)=N[C@]12c1cc(-c3cncnc3)ccc1C[C@]21CC[C@@H](OC)CC1 | Beta-secretase 1 (Homo sapiens, UniProt P56817) | pKi | 6.87

----------
Recorded log10 CLH values for a group of molecules are listed next.
test: Intrinsic clearance in rat hepatocytes assessed per million cells at 1 uM after 120 mins by LC-MS/MS method; assay type: ADME, cell-based, Hepatocyte; settings: 2 h
measurement-name: log10 CLH (log10 of the value in µL/min/10^6 cells)

molecule | readout-number
[2H]C1([2H])OC(N)=N[C@]12c1cc(-c3cncnc3)ccc1C[C@@]21C[C@@H](C)[C@H](OC)[C@@H](C)C1 (racemic) | 2.14
[2H]C1([2H])OC(N)=N[C@]12c1cc(-c3cc(Cl)cc(C#N)c3)ccc1C[C@]21CC[C@@H](OC)CC1 | 0.94
CO[C@H]1CC[C@]2(CC1)Cc1ccc(-c3cc(Cl)cc(C#N)c3)cc1[C@@]21COC(N)=N1 | 1.06
[2H]C1([2H])OC(N)=N[C@]12c1cc(-c3cncnc3)ccc1C[C@]21CC[C@@H](OC)[C@H](C)C1 | 1.91
[2H]C1([2H])OC(N)=N[C@]12c1cc(-c3cncnc3)ccc1C[C@]21CC[C@@H](OC)[C@H](CC)C1 | 2.14
[2H]C1([2H])OC(N)=N[C@]12c1cc(-c3cncnc3)ccc1C[C@@]21CC[C@H](OC)[C@@H](C)C1 | 1.82
COc1cc(C#N)cc(-c2ccc3c(c2)[C@@]2(COC(N)=N2)[C@]2(CC[C@H](OC)CC2)C3)c1 | 1.38
[2H]C1([2H])OC(N)=N[C@]12c1cc(-c3cc(C#N)cc(OC)c3)ccc1C[C@]21CC[C@@H](OC)CC1 | 1.40
[2H]C1([2H])OC(N)=N[C@]12c1cc(-c3cncnc3)ccc1C[C@@]21CC[C@H](OC)[C@@H](CC)C1 | 2.20
